ASSAY TARGET: NMDA receptor (GRIN1/GRIN2A) (Homo sapiens, UniProt Q05586+Q12879)
Sequence (Q12879 23-1464, other chains not shown): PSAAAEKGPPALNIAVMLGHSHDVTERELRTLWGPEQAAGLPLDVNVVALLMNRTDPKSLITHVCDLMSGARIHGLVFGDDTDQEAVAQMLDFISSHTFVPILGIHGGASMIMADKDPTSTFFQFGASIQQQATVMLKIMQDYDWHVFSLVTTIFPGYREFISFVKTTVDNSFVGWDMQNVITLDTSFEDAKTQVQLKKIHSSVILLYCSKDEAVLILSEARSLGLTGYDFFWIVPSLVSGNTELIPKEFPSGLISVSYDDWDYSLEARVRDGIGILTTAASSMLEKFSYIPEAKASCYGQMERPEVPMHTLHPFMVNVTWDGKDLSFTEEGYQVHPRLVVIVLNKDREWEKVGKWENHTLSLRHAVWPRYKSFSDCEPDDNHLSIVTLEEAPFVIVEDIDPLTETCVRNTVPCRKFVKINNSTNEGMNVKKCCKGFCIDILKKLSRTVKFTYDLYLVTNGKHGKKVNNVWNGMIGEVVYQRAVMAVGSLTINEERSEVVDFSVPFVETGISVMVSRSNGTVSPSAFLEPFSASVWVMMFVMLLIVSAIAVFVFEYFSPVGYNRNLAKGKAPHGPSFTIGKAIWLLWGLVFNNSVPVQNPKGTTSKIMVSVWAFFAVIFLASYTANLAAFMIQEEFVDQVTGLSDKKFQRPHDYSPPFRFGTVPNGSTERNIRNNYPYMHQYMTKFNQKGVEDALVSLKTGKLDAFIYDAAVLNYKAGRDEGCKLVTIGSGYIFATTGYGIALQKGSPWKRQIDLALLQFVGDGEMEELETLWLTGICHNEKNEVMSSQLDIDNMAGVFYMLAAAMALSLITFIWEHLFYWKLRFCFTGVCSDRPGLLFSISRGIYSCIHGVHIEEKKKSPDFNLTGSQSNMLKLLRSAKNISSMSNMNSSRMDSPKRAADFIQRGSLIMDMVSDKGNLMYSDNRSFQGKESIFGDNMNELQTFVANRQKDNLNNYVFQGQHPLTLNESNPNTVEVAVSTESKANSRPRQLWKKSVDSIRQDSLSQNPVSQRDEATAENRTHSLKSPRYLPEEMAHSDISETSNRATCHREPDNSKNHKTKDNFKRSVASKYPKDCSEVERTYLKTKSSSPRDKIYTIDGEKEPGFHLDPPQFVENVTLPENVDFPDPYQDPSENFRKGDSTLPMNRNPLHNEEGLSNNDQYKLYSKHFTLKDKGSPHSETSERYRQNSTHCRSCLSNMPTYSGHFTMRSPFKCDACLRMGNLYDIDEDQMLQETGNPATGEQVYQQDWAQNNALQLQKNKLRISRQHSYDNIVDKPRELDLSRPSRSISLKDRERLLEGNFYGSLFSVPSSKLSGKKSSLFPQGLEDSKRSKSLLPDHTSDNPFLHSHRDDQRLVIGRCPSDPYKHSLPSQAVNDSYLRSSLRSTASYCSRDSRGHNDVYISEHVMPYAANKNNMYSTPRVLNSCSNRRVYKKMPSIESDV
TEST METHOD NOTES: NMDA potentiation, two electrode voltage clamp (TEVC) of Xenopus oocytes expressing NMDA receptor
Type: cell-based
SETTINGS: 10 μM compound, 3 μM Glutamate and Glycine
QUANTITY MEASURED: activation at 10 µM

Prompt line: Reported activation at 10 µM for CC[C@]1(O)CC[C@@]2(C)[C@@H](CC[C@@H]3[C@@H]2CC[C@]2(C)[C@@H]([C@H](C)CCC(O)C(F)(F)F)CC[C@@H]32)C1 (some centres unmarked) [Compound 2-5] : what is it?
Response line: 50 to 100%

Prompt line: Now give it for CCC[C@@](C)(O)CC[C@@H](C)[C@H]1CC[C@H]2[C@@H]3CC[C@H]4C[C@@](C)(O)CC[C@]4(C)[C@H]3CC[C@]12C [Compound 5-8] too.
Response line: 50 to 100%

Can you give me activation at 10 µM for all of these, one by one?
1. CC[C@]1(O)CC[C@@]2(C)[C@@H](CC[C@@H]3[C@@H]2CC[C@]2(C)[C@@H]([C@H](C)CC[C@H](O)C(F)(F)F)CC[C@@H]32)C1 [Compound 2-10]
2. CC[C@@](C)(O)CC[C@@H](C)[C@H]1CC[C@H]2[C@@H]3CC=C4C[C@@](C)(O)CC[C@]4(C)[C@H]3CC[C@]12C [Compound 4-11]
3. C[C@H](CC[C@@](C)(O)C(F)(F)F)[C@H]1CC[C@H]2[C@@H]3CC=C4C[C@@](C)(O)CC[C@]4(C)[C@H]3CC[C@]12C [Compound 3-6]

Response line:
1. 10 to 50%
2. > 100%
3. 50 to 100%

###

ASSAY TARGET: NMDA receptor (GRIN1/GRIN2A) (Homo sapiens, UniProt Q05586+Q12879)
TEST METHOD NOTES: NMDA potentiation, two electrode voltage clamp (TEVC) of Xenopus oocytes expressing NMDA receptor
Assay type: cell-based
SETTINGS: 10 μM compound, 3 μM Glutamate and Glycine
QUANTITY MEASURED: activation at 10 µM

Prompt line: // activation at 10 µM lookup, key: `CC(C)[C@@](C)(O)CC[C@@H](C)[C@H]1CC[C@H]2[C@@H]3CC=C4C[C@@](C)(O)CC[C@]4(C)[C@H]3CC[C@]12C`
Response line: 50 to 100%

Prompt line: Param item: `C#C[C@](C)(O)CC[C@@H](C)[C@H]1CC[C@H]2[C@@H]3CC=C4C[C@@](C)(O)CC[C@]4(C)[C@H]3CC[C@]12C`
Response line: 10 to 50%

---
Prompt line: Which activation at 10 µM reading was recorded for the compound `C[C@H](CC[C@@](C)(O)C1CC1)[C@H]1CC[C@H]2[C@@H]3CC[C@H]4C[C@@](C)(O)CC[C@]4(C)[C@H]3CC[C@]12C` ?
Response line: 10 to 50%

###

ASSAY TARGET: NMDA receptor (GRIN1/GRIN2A) (Homo sapiens, UniProt Q05586+Q12879)
TEST METHOD NOTES: NMDA potentiation, two electrode voltage clamp (TEVC) of Xenopus oocytes expressing NMDA receptor
Type: cell-based
SETTINGS: 10 μM compound, 3 μM Glutamate and Glycine
Please go through the items and note down their activation at 10 µM.

The following compounds have reported results that may help.
Prompt line: What does the record list as activation at 10 µM for `C[C@H](CC[C@@](C)(O)C(F)(F)F)[C@H]1CC[C@H]2[C@@H]3CC[C@H]4C[C@@](C)(O)CC[C@]4(C)[C@H]3CC[C@]12C` ?
Response line: 10 to 50%

Prompt line: Let us now turn to C=C[C@](C)(O)CC[C@@H](C)[C@H]1CC[C@H]2[C@@H]3CC=C4C[C@@](C)(O)CC[C@]4(C)[C@H]3CC[C@]12C [Compound 10-12A]
Response line: 10 to 50%

Further cases:
Prompt line: Reported activation at 10 µM, compound `C[C@H](CC[C@](C)(O)C(F)(F)F)[C@H]1CC[C@H]2[C@@H]3CC=C4C[C@@](C)(O)CC[C@]4(C)[C@H]3CC[C@]12C` : ____
Response line: 10 to 50%
